# Target under test: Substance-P receptor (Homo sapiens)
# Sequence (P25103 whole entry): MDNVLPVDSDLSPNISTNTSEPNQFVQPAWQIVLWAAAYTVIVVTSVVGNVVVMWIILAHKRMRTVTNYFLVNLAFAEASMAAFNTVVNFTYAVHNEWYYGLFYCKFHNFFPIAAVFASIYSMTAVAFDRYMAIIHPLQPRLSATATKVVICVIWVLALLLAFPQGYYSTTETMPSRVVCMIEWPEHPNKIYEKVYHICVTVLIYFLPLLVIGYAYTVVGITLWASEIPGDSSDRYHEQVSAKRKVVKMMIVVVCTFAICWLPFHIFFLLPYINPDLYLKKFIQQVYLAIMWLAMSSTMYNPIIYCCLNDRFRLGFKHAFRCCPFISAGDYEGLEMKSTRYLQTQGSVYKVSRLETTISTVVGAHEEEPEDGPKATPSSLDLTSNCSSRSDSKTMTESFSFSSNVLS
# Experimental protocol: Compound was evaluated for the antagonistic activity against NK1 receptor
Give measured IC50 for each item. Keep answers brief.
Form entry: value (nM) — number only.

Given the compound COc1cc(C(=O)N2CC[C@](CCN3CCC(C(N)=O)(c4ccccc4)CC3)(c3ccc(Cl)c(Cl)c3)C2)cc(OC)c1OC , what is its reported IC50? 3

Any idea what IC50 was measured for COc1ccc(CCN2CCC(C(=O)c3nc4ccccc4n3Cc3ccc(F)cc3)CC2)cc1 ? 5200

---

# Target under test: Substance-P receptor (Cavia porcellus, UniProt P30547)
# Sequence (P30547 whole entry): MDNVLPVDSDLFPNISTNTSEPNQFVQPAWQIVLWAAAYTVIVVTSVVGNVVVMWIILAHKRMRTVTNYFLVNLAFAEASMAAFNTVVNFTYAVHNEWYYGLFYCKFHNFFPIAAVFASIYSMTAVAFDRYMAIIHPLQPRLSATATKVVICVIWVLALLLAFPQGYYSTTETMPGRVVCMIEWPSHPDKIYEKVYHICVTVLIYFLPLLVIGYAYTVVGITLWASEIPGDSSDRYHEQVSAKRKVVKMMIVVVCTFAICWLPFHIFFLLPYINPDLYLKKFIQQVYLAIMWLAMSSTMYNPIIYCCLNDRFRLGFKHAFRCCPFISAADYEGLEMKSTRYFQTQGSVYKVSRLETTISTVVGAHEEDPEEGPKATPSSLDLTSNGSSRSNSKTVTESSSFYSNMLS
# Experimental protocol: Antagonism of the guinea pig tachykinin NK1 receptor
Provide the reported IC50 of each item.
Write the answer as a number in nM, unit excluded.

Sample COc1cc(C(=O)N2CCC(CCN3CCC(C(=O)c4nc5ccccc5n4CCCOc4ccccc4C(=O)O)CC3)(c3ccccc3)C2)cc(OC)c1OC (configuration not stated) — what was its IC50? 27

May I ask what IC50 has been recorded for COc1cc(C(=O)N2CCC(CCN3CCC(C(=O)c4nc5ccccc5n4Cc4ccco4)CC3)(c3ccccc3)C2)cc(OC)c1OC (configuration not stated) ? 21

Entry under review: CCOCCn1c(C(=O)C2CCN(CCC3(c4ccccc4)CCN(C(=O)c4cc(OC)c(OC)c(OC)c4)C3)CC2)nc2ccccc21 (configuration not stated) . Reported IC50? 26

Name the reported IC50 value associated with the molecule COc1ccc(C2(CCN3CCC(C(=O)c4nc5ccccc5n4Cc4ccccn4)CC3)CCN(C(=O)c3cc(OC)c(OC)c(OC)c3)C2)cc1 (configuration not stated) 42

Could you share which IC50 value was measured for COC(=O)c1ccc(Cn2c(C(=O)C3CCN(CCC4(c5ccccc5)CCN(C(=O)c5cc(OC)c(OC)c(OC)c5)C4)CC3)nc3ccccc32)cc1 (configuration not stated) ? 23

// lookup IC50 for COc1cc(C(=O)N2CCC(CCN3CCC(C(=O)c4nc5ccccc5[nH]4)CC3)(c3ccccc3)C2)cc(OC)c1OC (configuration not stated) 36

Name the recorded IC50 for COc1cc(C(=O)N2CCC(CCN3CCC(C(=O)c4nc5ccccc5n4Cc4ccccn4)CC3)(c3ccccc3)C2)cc(OC)c1OC (configuration not stated) . 27

All values here come from ChEMBL document CHEMBL1150559.
